The measured values listed here are drawn from patent US7015211B2.

Target: UniProtKB P06211
Sequence (P06211 whole entry): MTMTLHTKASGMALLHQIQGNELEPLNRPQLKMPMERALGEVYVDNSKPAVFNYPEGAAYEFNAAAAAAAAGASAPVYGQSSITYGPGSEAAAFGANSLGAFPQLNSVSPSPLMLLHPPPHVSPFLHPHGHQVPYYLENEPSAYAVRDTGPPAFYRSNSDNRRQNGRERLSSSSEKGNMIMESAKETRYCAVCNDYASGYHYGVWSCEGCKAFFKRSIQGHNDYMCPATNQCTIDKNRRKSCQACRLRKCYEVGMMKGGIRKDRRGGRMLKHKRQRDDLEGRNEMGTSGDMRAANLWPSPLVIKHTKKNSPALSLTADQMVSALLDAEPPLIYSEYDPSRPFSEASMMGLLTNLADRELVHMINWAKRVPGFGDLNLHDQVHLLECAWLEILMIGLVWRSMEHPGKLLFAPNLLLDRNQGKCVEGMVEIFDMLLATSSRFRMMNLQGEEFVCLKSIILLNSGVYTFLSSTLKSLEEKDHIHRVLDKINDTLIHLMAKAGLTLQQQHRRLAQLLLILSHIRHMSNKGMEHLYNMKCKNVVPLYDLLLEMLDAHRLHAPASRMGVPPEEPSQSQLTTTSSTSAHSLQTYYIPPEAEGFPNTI
Experiment: Competitive binding to the estrogen receptor in rat uterine cytosol
Details: relative binding affinity, E2 = 100; rat uterine cytosol, 1 nM [3H]E2; ± SD
Short version: Estrogen Receptor (RBA) at least 5 is Y, less is N.

* CCOC(=O)CC[C@H]1C[C@H](O)[C@@]2(C)CC[C@@H]3c4ccc(O)cc4CC[C@H]3[C@H]12 | N
* CCOC(=O)[C@H]1C[C@H](O)[C@@]2(C)CC[C@@H]3c4ccc(O)cc4CC[C@H]3[C@H]12 | Y
* CCOC(=O)C[C@H]1C[C@H](O)[C@@]2(C)CC[C@@H]3c4ccc(O)cc4CC[C@H]3[C@H]12 | N
* CCCOC(=O)[C@H]1C[C@H](O)[C@@]2(C)CC[C@@H]3c4ccc(O)cc4CC[C@H]3[C@H]12 | Y

Request: Entry `COC(=O)CC[C@H]1C[C@H](O)[C@@]2(C)CC[C@@H]3c4ccc(O)cc4CC[C@H]3[C@H]12` : is its Estrogen Receptor (RBA) no less than 5?
Response: N

Request: Try this compound next: `C[C@]12CC[C@@H]3c4ccc(O)cc4CC[C@H]3[C@@H]1[C@@H](CCC(=O)O)C[C@@H]2O`
Response: N

Request: Try this compound next: `CCCCOC(=O)[C@H]1C[C@H](O)[C@@]2(C)CC[C@@H]3c4ccc(O)cc4CC[C@H]3[C@H]12`
Response: Y

Request: Try this compound next: `C[C@]12CC[C@@H]3c4ccc(O)cc4CC[C@H]3[C@@H]1[C@@H](CC(=O)O)C[C@@H]2O`
Response: N
